- ASSAY SYSTEM: Recombinant Human NF-kappaB-Inducing Kinase (NIK/MAP3K14) (Homo sapiens)
- Sequence (Q99558 whole entry): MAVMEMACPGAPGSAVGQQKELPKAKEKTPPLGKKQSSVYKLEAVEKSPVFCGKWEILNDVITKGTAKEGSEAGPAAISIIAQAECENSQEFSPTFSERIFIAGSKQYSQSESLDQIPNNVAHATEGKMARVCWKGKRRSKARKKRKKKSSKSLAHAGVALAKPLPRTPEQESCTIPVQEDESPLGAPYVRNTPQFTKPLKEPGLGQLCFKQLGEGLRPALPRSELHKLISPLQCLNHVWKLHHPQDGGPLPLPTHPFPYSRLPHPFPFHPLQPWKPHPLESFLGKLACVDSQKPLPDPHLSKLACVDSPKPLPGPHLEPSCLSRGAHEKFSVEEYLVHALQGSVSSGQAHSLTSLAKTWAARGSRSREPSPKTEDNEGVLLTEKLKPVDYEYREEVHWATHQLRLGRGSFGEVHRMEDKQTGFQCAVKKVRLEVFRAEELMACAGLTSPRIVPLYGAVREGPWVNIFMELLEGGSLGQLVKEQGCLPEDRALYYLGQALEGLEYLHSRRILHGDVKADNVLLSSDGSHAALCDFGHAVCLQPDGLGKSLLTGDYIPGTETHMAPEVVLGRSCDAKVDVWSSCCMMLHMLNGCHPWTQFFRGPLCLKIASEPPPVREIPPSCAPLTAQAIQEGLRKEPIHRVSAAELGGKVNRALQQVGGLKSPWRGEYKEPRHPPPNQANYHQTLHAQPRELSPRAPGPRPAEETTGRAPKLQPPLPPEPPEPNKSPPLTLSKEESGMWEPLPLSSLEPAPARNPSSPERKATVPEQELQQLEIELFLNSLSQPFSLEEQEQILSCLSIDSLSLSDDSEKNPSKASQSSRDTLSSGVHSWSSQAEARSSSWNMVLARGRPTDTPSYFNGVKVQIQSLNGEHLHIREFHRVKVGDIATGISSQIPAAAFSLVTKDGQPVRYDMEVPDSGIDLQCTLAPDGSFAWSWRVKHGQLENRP
- ASSAY: Inhibition of auto-phosphorylation of recombinant human NIK/MAP3K14 (AlphaScreen)
- STUDY CONDITIONS: 25 microM ATP, 0.2 nM GST-tagged NIK/MAP3K14, 1 h at 25° C.; averaged over all measurements on all batches; read-out: Alpha-Screen IC50
pIC50: −log10 of the molar value.
READOUT TYPE: pIC50

Cc1nc(C#CC(C)(O)C2CC2)cc2c(-c3nc(N)ncc3F)c[nH]c12 (stereo not shown) [Compound 2] : 8.15
[2H]C([2H])([2H])C(O)(C#Cc1cc2c(-c3nc(N)ncc3F)cn(C3CCCN(CCC)C3)c2cn1)C([2H])([2H])[2H] (single isomer, unassigned) [Compound 24] : 7.05
CC(O)(C#Cc1cc2c(-c3nc(N)ncc3F)cn(C3CN(CCC(F)(F)F)C3)c2cn1)C1CC1 (stereo not shown) [Compound 5] : 7.13

[I] CCCN1CCC(n2cc(-c3nc(N)ncc3F)c3cc(C#CC(C)(O)C4CC4)ncc32)C1 (stereo not shown) [Compound 6]
[II] Cc1cc(C(C)(O)C#Cc2cc3c(-c4nc(N)ncc4F)c[nH]c3cn2)no1 (stereo not shown) [Compound 18]
-- ask Param metric = pIC50; output whichever of I , II has the minimum value. Which one? Tell me its label.
-- reply I
(I: 7.54, II: 8.00)

[1] CC(O)(C#Cc1cc2c(-c3nc(N)ncc3F)cn(C3CN(C4CC4)C3)c2cn1)c1ncccn1 (stereo not shown) [Compound 17]
[2] Nc1ncc(F)c(-c2cn(C3CN(C4CC4)C3)c3cnc(C#CC4(O)CCCC4)cc23)n1 [Compound 21]
-- ask Param metric = pIC50; output whichever of 1 , 2 has the minimum value. Which one? Tell me its label.
-- reply 1

[P] COCCN1CCC(n2cc(-c3nc(N)ncc3F)c3cc(C#CC(C)(O)C4CC4)ncc32)C1 (stereo not shown) [Compound 7]
[Q] CC(O)(C#Cc1cc2c(-c3nc(N)ncc3F)cn(C3CN(C4CC4)C3)c2cn1)c1nccs1 (single isomer, unassigned) [Compound 28]
[R] CC(O)(C#Cc1cc2c(-c3nc(N)ncc3F)c[nH]c2cn1)c1nccs1 (stereo not shown) [Compound 19]
-- ask Parameters: sort_field (pIC50), sort_dir (desc). Would you mind listing the labels in the order asked for?
-- reply R, Q, P
(R: 8.52, Q: 7.80, P: 7.59)

[P] Nc1ncc(F)c(-c2c[nH]c3cnc(C#CC4(O)CCCC4)cc23)n1 [Compound 20]
[Q] CCCCN1CCC(n2cc(-c3nc(N)ncc3F)c3cc(C#CC(C)(O)C4CC4)ncc32)C1 (single isomer, unassigned) [Compound 26]
-- ask Param metric = pIC50; output whichever of P , Q has the minimum value. Which one? Tell me its label.
-- reply Q
